- Tested on: TGFβ signal
- MEASUREMENT_NOTES: TGFβ signal inhibitory activity, (SBE)4-Luc reporter in A549 cells (Test Examples 1A and 1B)
- Type: cell-based, human
- ASSAY_CONTEXT: Homo sapiens, A549; test compound 3 µM; TGFβ-1 2 ng/ml, 4 hr; Table 1A; read-out: TGFβ inhibition rate, %
Recorded inhibition at 3 µM for the following molecules
RESULT_TYPE: inhibition at 3 µM

Cc1cc(Oc2ccnc3cc(C(F)(F)F)ccc23)c(-c2ccccn2)nc1C    99%
COc1cc2nccc(Oc3cc4cccnc4nc3C)c2cc1F    56%
COc1cc2nccc(Oc3cc4cccnc4nc3-c3ccccc3)c2cc1C(N)=O    100%
CCc1ccc(Oc2ccnc3cc(C(N)=O)c(Cl)cc23)c(-c2ccccn2)n1    96%
Cc1cc(Oc2ccnc3ccc(OCCO)cc23)c(-c2ncccn2)nc1C    85%
Cc1cc(Oc2ccnc3cc(O)ccc23)c(-c2ccccn2)nc1C    99%
COc1cc2c(Oc3cc4cccnc4nc3-c3ccccc3)ccnc2cc1C(N)=O    34%
COc1cc2nccc(Oc3cc4cccnc4nc3-c3ccc(F)cc3)c2cc1OC    92%
COc1cc2c(Oc3cc(C)c(C)nc3-c3ccccn3)ccnc2cc1C    100%
COc1cc2nccc(Oc3cc4ccncc4nc3-c3ccccc3)c2cc1OC    94%
COC(=O)c1cc2c(Oc3cc4cccnc4nc3-c3ccccc3)ccnc2cc1Cl    58%
COc1cncc(-c2nc(C)c(C)cc2Oc2ccnc3cc(OC)c(OC)cc23)c1    89%
Cc1cc(Oc2ccnc3ccc(-c4ccccn4)cc23)c(-c2ccccn2)nc1C    89%
CCc1ccc(Oc2ccnc3cc(C(N)=O)c(OC)cc23)c(-c2ccccn2)n1    100%
Cc1cc(Oc2ccnc3ccc(Br)cc23)c(-c2ccccn2)nc1C    100%
COc1ccc2ncnc(Oc3cc(C)c(C)nc3-c3ccc(C)cn3)c2c1    88%
Cc1cc(Oc2ccnc3cc(-c4ccccc4N)ccc23)c(-c2ccccn2)nc1C    96%
COc1cc2nccc(Oc3cc(C)c(C)nc3-c3ccccn3)c2cc1F    100%
